Please respond with reported %Inh for every item in the list.
- Tested on: CDKL5
- cond: concentration: 1 μM, replicates: in singlicate; n = 1;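 also: KINOMEscan kinase panel screen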
Numbers only; they are read as %.

## Input Tell me the measured %Inh of COc1ccc(Nc2nccc(N3CCC(NS(=O)(=O)c4ccc(NC(C)=O)cc4)C3)n2)cc1 (stereo not drawn) , please.
## Output 0

## Input Tell me the measured %Inh of Cc1cc(Nc2nc(-c3cccc(C)n3)nc3ccccc23)ccn1 , please.
## Output 0

## Input Tell me the measured %Inh of COc1cc(Nc2nccc(N3CCC(NC(=O)C4COc5ccccc5O4)C3)n2)cc(OC)c1OC (stereo not drawn) , please.
## Output 0

## Input Tell me the measured %Inh of COC(=O)c1c(-c2ccccc2)c2cc(Br)ccc2c(=O)n1Cc1ccc(NC(=O)CCC(=O)O)cc1 , please.
## Output 6

## Input Tell me the measured %Inh of Nc1n[nH]c2ncc(-c3ccccc3)cc12 , please.
## Output 0

## Input Tell me the measured %Inh of O=C(NCc1cccs1)c1cc(C(=O)c2c(Cl)cccc2Cl)c[nH]1 , please.
## Output 0

## Input Tell me the measured %Inh of CCS(=O)c1ccc(-c2coc3ccc(-c4nnc(C)o4)cc23)cc1 (stereo not drawn) , please.
## Output 0

## Input Tell me the measured %Inh of Nc1nc(N)c2nc(-c3ccccc3)[nH]c2n1 , please.
## Output 4

## Input Tell me the measured %Inh of COc1cc(Nc2ccnc3ccc(C(F)(F)F)cc23)cc(OC)c1OC , please.
## Output 0

###

- Test system: PAK1
- cond: concentration: 1 μM, replicates: in singlicate; n = 1
recordedEndpoint: %Inh (%)
Numbers only; they are read as %.

## Input Tell me the measured %Inh of O=C(Nc1n[nH]c2nc(-c3ccccc3)c(Br)cc12)C1CC1 [SB-708998] , please.
## Output 10

## Input Tell me the measured %Inh of CCS(=O)(=O)c1ccc(OC)c(Nc2ncc(-c3ccc(F)cc3)o2)c1.Cl [GW591947] , please.
## Output 0

## Input Tell me the measured %Inh of COc1ccc(-c2coc3ccc(-c4nnc(SCc5cccc(C#N)c5)o4)cc23)cc1 , please.
## Output 18

## Input Tell me the measured %Inh of COc1cc(Nc2ccnc3ccc(C(F)(F)F)cc23)cc(OC)c1OC [GW577382] , please.
## Output 0

## Input Tell me the measured %Inh of Cl.c1ccc(Cn2cnc3cc(Nc4ncnc5ccccc45)ccc32)cc1 [GW272142] , please.
## Output 0

## Input Tell me the measured %Inh of O=C(Nc1ccc2c(c1)OCO2)NC1CCN(c2ccnc(NCc3ccc(F)cc3)n2)CC1 [GSK1379859] , please.
## Output 0

## Input Tell me the measured %Inh of C[C@@H]1CC[C@H](C(=O)NC2CCCCC2)CN1c1cc(-c2ccc3c(N)n[nH]c3c2)nc(N)n1 [GSK2291363] , please.
## Output 15

## Input Tell me the measured %Inh of COc1ccc(-n2cnc3c(N)ncnc32)cc1 [SKF-97236] , please.
## Output 0

###

Please respond with reported %Inh for every item in the list.
- Tested on: CAMKK2
- cond: concentration: 1 μM, replicates: in singlicate; n = 1
Numbers only; they are read as %.

## Input Tell me the measured %Inh of COc1cc2ncn(-c3cc(OCc4ccncc4)c(C(N)=O)s3)c2cc1OC [GSK336313] , please.
## Output 22

## Input Tell me the measured %Inh of O=C(Nc1n[nH]c2nc(-c3ccccc3)c(Cl)cc12)C1CC1 [SB-734909] , please.
## Output 1

## Input Tell me the measured %Inh of COc1cc(Nc2nccc(N3CCC(NC(=O)C4COc5ccccc5O4)C3)n2)cc(OC)c1OC (centres unmarked) [GSK1379761] , please.
## Output 14

## Input Tell me the measured %Inh of Nc1ncnc2c1ncn2-c1cccc(F)c1 [SKF-97560] , please.
## Output 0

## Input Tell me the measured %Inh of O=c1cc(N2CCOCC2)nc2n(Cc3ccc(F)c(Cl)c3)ccn12 [GSK2297099] , please.
## Output 24

###

- Test system: ERN1
- cond: concentration: 1 μM, replicates: in singlicate; n = 1
recordedEndpoint: %Inh (%)
Numbers only; they are read as %.

## Input Tell me the measured %Inh of COc1cc2ncn(-c3cc(OCCCc4ccccc4)c(C(N)=O)s3)c2cc1OC , please.
## Output 0

## Input Tell me the measured %Inh of COc1ccc(Nc2nccc(N3CCC(NS(=O)(=O)c4ccc(NC(C)=O)cc4)C3)n2)cc1 (stereo not drawn) , please.
## Output 0

## Input Tell me the measured %Inh of CCc1nc(-c2cccc(C)c2)c(-c2ccncc2)s1 , please.
## Output 0

## Input Tell me the measured %Inh of Nc1ncnc2c1ncn2-c1cccc(F)c1 , please.
## Output 27

## Input Tell me the measured %Inh of COc1cc(Nc2nccc(N3CCC(NC(=O)C4COc5ccccc5O4)C3)n2)cc(OC)c1OC (stereo not drawn) , please.
## Output 2

## Input Tell me the measured %Inh of Cc1c(Cn2c(C)nn3c(=O)cc(N4CCO[C@H](C)C4)nc23)cccc1C(F)(F)F , please.
## Output 10

## Input Tell me the measured %Inh of CCC(=O)c1c(-c2ccccc2)c2cc(Cl)ccc2c(=O)n1Cc1ccc(C(=O)O)cc1 , please.
## Output 0

## Input Tell me the measured %Inh of COc1cc(Nc2ccnc3ccc(C(F)(F)F)cc23)cc(OC)c1OC , please.
## Output 0

## Input Tell me the measured %Inh of CCn1c(-c2nonc2N)nc2ccccc21 , please.
## Output 26

###

Please respond with reported %Inh for every item in the list.
- System: ERK5
- Construct: gene MAPK7
- cond: concentration: 1 μM, replicates: in singlicate; n = 1
Numbers only; they are read as %.

## Input Tell me the measured %Inh of COc1cc2nccc(Nc3cccc(Oc4ccccc4)c3)c2cc1OC.Cl , please.
## Output 26

## Input Tell me the measured %Inh of COc1cc(OC)cc(-c2cc3cnc(N)nc3nc2NC(=O)NC(C)(C)C)c1 , please.
## Output 2

## Input Tell me the measured %Inh of Cc1nnc(-c2ccc(C)c(-c3ccc(C(=O)O)cc3)c2)o1 , please.
## Output 0

## Input Tell me the measured %Inh of Nc1ncnc2c1ncn2-c1cccc(F)c1 , please.
## Output 3

## Input Tell me the measured %Inh of CCC(=O)c1c(-c2ccccc2)c2cc(Cl)ccc2c(=O)n1Cc1cc(S(C)(=O)=O)n(CC(N)=O)n1 , please.
## Output 0

## Input Tell me the measured %Inh of Cn1c(=O)c(F)c(Nc2ccc(I)cc2F)c2c(=O)n(OC[C@H](O)CO)cnc21 , please.
## Output 24

## Input Tell me the measured %Inh of CCCNC(=O)Nc1ccc(Oc2ncnc3ccn(C)c23)cc1 , please.
## Output 3

## Input Tell me the measured %Inh of CCC(=O)c1c(-c2ccccc2)c2cc(Cl)ccc2c(=O)n1Cc1cc(C(=O)NC2CC2)n(C)n1 , please.
## Output 4

## Input Tell me the measured %Inh of Nc1ncnc2c1ncn2-c1cccc2ccccc12 , please.
## Output 0

## Input Tell me the measured %Inh of O=C(NCc1cccs1)c1cc(C(=O)c2c(Cl)cccc2Cl)c[nH]1 , please.
## Output 0

## Input Tell me the measured %Inh of Cc1cccc(-c2cc(-c3c[nH]nc3-c3ccccn3)ccn2)c1 , please.
## Output 0

## Input Tell me the measured %Inh of CCS(=O)(=O)c1ccc(OC)c(Nc2ncc(-c3ccc(F)cc3)o2)c1.Cl , please.
## Output 0

## Input Tell me the measured %Inh of COc1cc2ncn(-c3cc(OCCCc4ccccc4)c(C(N)=O)s3)c2cc1OC , please.
## Output 0

## Input Tell me the measured %Inh of CCC(=O)c1c(-c2ccccc2)c2cc(Cl)ccc2c(=O)n1Cc1ccc(C(=O)O)cc1 , please.
## Output 0

## Input Tell me the measured %Inh of COc1ccc(CNC(=O)NC2CCN(c3ccnc(Nc4ccc(F)cc4)n3)C2)cc1 (stereo not shown) , please.
## Output 0

## Input Tell me the measured %Inh of Cc1c(Cn2c(C)nn3c(=O)cc(N4CCO[C@H](C)C4)nc23)cccc1C(F)(F)F , please.
## Output 0

###

Please respond with reported %Inh for every item in the list.
- Tested on: CDK9
- cond: concentration: 1 μM, replicates: in singlicate; n = 1
Numbers only; they are read as %.

## Input Please tell me: %Inh of Nc1nc(N)c2nc(-c3ccccc3)[nH]c2n1 [SKF-12778] , system CDK9?
## Output 0

## Input Please tell me: %Inh of CCCC(=O)Nc1n[nH]c2ncc(-c3cccc4ccccc34)cc12 [SB-642057] , system CDK9?
## Output 0

## Input Please tell me: %Inh of Nc1n[nH]c2ncc(-c3ccccc3)cc12 [SB-517081] , system CDK9?
## Output 0

## Input Please tell me: %Inh of CCS(=O)(=O)c1ccc(OC)c(Nc2ncc(-c3ccc(F)cc3)o2)c1.Cl [GW591947] , system CDK9?
## Output 0

## Input Please tell me: %Inh of Cc1nnc(-c2ccc(C)c(-c3ccc(C(=O)O)cc3)c2)o1 [GW608005] , system CDK9?
## Output 0

## Input Please tell me: %Inh of O=C1NC(=O)C(c2ccccc2)=C1Nc1cccc(O)c1 [SB-390534] , system CDK9?
## Output 0

## Input Please tell me: %Inh of COc1ccc(-n2cnc3c(N)ncnc32)cc1 [SKF-97236] , system CDK9?
## Output 0

## Input Please tell me: %Inh of CN1C(=O)C(Nc2ccccc2)=C(c2ccccc2)C1=O [SB-300079] , system CDK9?
## Output 1

## Input Please tell me: %Inh of COc1cccc(C2=C(Nc3cccc(C(=O)O)c3)C(=O)NC2=O)c1 [SB-390770] , system CDK9?
## Output 0

## Input Please tell me: %Inh of O=C(Nc1n[nH]c2nc(-c3ccccc3)c(Cl)cc12)C1CC1 [SB-734909] , system CDK9?
## Output 0

## Input Please tell me: %Inh of CCc1ccc(-c2ccc3c(c2)-c2nn(C)cc2S(=O)(=O)N3C)cc1 , system CDK9?
## Output 0

## Input Please tell me: %Inh of COc1cc(Nc2nccc(N3CCC(NC(=O)C4COc5ccccc5O4)C3)n2)cc(OC)c1OC (stereo not shown) [GSK1379761] , system CDK9?
## Output 0

## Input Please tell me: %Inh of OCCCNc1nccc(-c2c(-c3cccc(C(F)(F)F)c3)nn3cc(C(F)(F)F)ccc23)n1 [GW630813] , system CDK9?
## Output 0

## Input Please tell me: %Inh of Cc1ccc(Oc2ccc(Nc3ncnc4cc[nH]c34)cc2C)cn1 , system CDK9?
## Output 10

## Input Please tell me: %Inh of Cc1ccccc1COc1cc(-n2cnc3cc(Cl)ccc32)sc1C(N)=O [GW813349] , system CDK9?
## Output 0

## Input Please tell me: %Inh of CCc1nc(-c2cccc(C)c2)c(-c2ccncc2)s1 , system CDK9?
## Output 7

## Input Please tell me: %Inh of O=C(Nc1ccc2c(c1)OCO2)NC1CCN(c2ccnc(NCc3ccc(F)cc3)n2)CC1 [GSK1379859] , system CDK9?
## Output 0

## Input Please tell me: %Inh of COc1ccc(-c2coc3ccc(-c4nnc(SCc5cccc(C#N)c5)o4)cc23)cc1 , system CDK9?
## Output 0

## Input Please tell me: %Inh of COc1ccc(-c2cc3c(C)nc(N)nc3n([C@H]3CC[C@H](O)CC3)c2=O)cn1 , system CDK9?
## Output 0
